- test.method.notes: Cytotoxicity, MTT assay (Table 1)
- Format: cell-based
- recorded.conditions: mean
Reported values of CC50 for individual entries

{"compound": "C=C(C)[C@@H]1CC[C@]2(C(=O)NC(CCCCNC(=O)OC(C)(C)C)C(=O)O)CC[C@]3(C)[C@H](CC[C@@H]4[C@@]5(C)CC[C@H](OC(=O)CC(C)(C)C(=O)O)C(C)(C)[C@@H]5CC[C@]43C)[C@@H]12 (stereo partly shown)", "CC50 (µM)": 33}
{"compound": "C=C(C)[C@@H]1CC[C@]2(C(=O)NCCN)CC[C@]3(C)[C@H](CC[C@@H]4[C@@]5(C)CC[C@H](OC(=O)CC(C)(C)C(=O)O)C(C)(C)[C@@H]5CC[C@]43C)[C@@H]12", "CC50 (µM)": 33.9}
{"compound": "C=C(C)[C@@H]1CC[C@]2(C(=O)O)CC[C@]3(C)[C@H](CC[C@@H]4[C@@]5(C)CC[C@H](O)C(C)(C)[C@@H]5CC[C@]43C)[C@@H]12 [BA, betulinic acid, reference compound]", "CC50 (µM)": 4.52}
{"compound": "C=C(C)[C@@H]1CC[C@]2(C(=O)NCC(=O)O)CC[C@]3(C)[C@H](CC[C@@H]4[C@@]5(C)CC[C@H](OC(=O)CC(C)(C)C(=O)O)C(C)(C)[C@@H]5CC[C@]43C)[C@@H]12", "CC50 (µM)": 49.5}
